Assay: NCI Yeast Anticancer Drug Screen. Data for the rad50 strain (AID 155);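 note: 0% = growth of vehicle-only cultures of the same strain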
Settings: S. cerevisiae rad50 strain growth inhibition; at 50.0 µM; active compounds read high
This is part of a sample that, as a whole, favours compounds with a hit. Of some 79,000 tested, about 15% had one in any assay.

compound	growth inhibition (%)
COc1ccc(C2c3cn[nH]c3CC3CCCCC32)cc1 (configuration not stated)	75.8
Nc1ccc(-c2ccc(Cl)cc2)cc1	96.7
CC(C)=CCC/C(C)=C/CC/C(C)=C/CC/C=C(\C)CC/C=C(\C)CCC[N+](C)(C)[O-]	98.9
CCOCCOC(=O)c1cc([N+](=O)[O-])cc([N+](=O)[O-])c1	60.2
CC(=O)N(C1=CC(=O)c2ccccc2C1=O)c1ccc(Cl)cc1	96.7
CN=C(N)N/N=C(\C)c1ccc2c(c1)Cc1cc(Cl)ccc1-2	98.8
OC(C/C=N/Nc1ccccc1)(C(F)(F)Cl)C(F)(F)Cl	89.2
S=C(Nc1ccccc1)[S][Sb]([S]C(=S)Nc1ccccc1)[c]1ccccc1	41.4
COC(=O)N1C2C=CC(=O)C(C=C2)N1C(=O)OC (configuration not stated)	33.9
CCN(CC)CC(O)c1c(-c2ccccc2)c(-c2ccccc2)c2n1CCC2 (configuration not stated)	93.7
c1ccc2c(c1)CCc1[nH]c3c(c1-2)-c1ccccc1CC3	87.5
CCN(CC)c1c(C(=O)/C=C/c2ccc(OC)cc2)c(-c2ccccc2)nn(C)c1=O	78.1
CCCCCC/C=C\C=O	67.7
OC1c2ccccc2C2(O)C1C(c1ccccc1)C(c1ccccc1)C2(O)c1ccccc1 (configuration not stated)	96.7
OCCN=Cc1cccs1	8.85
CC1=CC(=O)[C@@H](O)[C@]2(C)[C@H]3[C@@]4(O)OC[C@]35[C@H]([C@@H](C)[C@H]4O)[C@@H](OC(=O)C(C)(C)CO)C(=O)O[C@@H]5C[C@@H]12	90.7
COc1ccc(C=O)cc1C[P+](c1ccccc1)(c1ccccc1)c1ccccc1	98
CCCCCOC(=O)C1C(=O)CC(c2ccccc2)C1c1ccccc1 (configuration not stated)	92.2
COc1ccc2c(c1)CCc1c(-c3noc4c3CCc3cc(OC)ccc3-4)noc1-2	9.65
COc1ccc(/C=C/c2ccnc3ccccc23)cc1	90.3
CN(C)CCCNc1cc(O)c2c(c1O)C(=O)c1ccccc1C2=O	99.2
ClCCOCCOc1c(Cl)cc(Cl)c(Cl)c1Cl	58.4

----------
Assay: NCI Yeast Anticancer Drug Screen. Data for the sgs1 mgt1 strain (AID 161);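 note: 0% = growth of cultures given vehicle only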
Conditions: S. cerevisiae sgs1 mgt1 strain, at 5.0 µM (retest, dose inferred, filed as 0.5), active compounds read high
Compounds without any hit were thinned out: in the full panel of roughly 79,000, 15% have a hit. Calls of active or inactive are those of the source. No stated cut-off is given here; in the data, active means growth inhibition above about 70%; inactive means the rest.
Documented growth inhibition across a set of compounds
reported-property: growth inhibition

compound	reported-property	value
N#CC1C(=O)NC(=O)CC1c1ccccc1 (configuration not stated)	growth inhibition	10% (inactive)
O=[N+]([O-])C1CCC(C2=CSC3CCCCC3N2)CC1 (configuration not stated)	growth inhibition	-9% (inactive)
O=C(c1ccccc1)C(Br)C(Br)c1ccc(Cl)c(Cl)c1 (configuration not stated)	growth inhibition	92% (active)
O=C(O)c1ccccc1-c1c2cc([N+](=O)[O-])c(=O)c(Br)c-2oc2c(Br)c(O)c([N+](=O)[O-])cc12	growth inhibition	25% (inactive)
CCOC(=O)Cc1csc(/C=C/c2ccc(OC)c(OC)c2)n1	growth inhibition	-13% (inactive)
CCCCCCCCCc1cc(O)c(O)cc1CCCCCCCCC	growth inhibition	-7% (inactive)
CC1CN(CC2CCCCCCCCCCC2=O)CC(C)O1 (configuration not stated)	growth inhibition	52% (inactive)
CCCCCCCCCCCCCCCC1=NCCN1C	growth inhibition	29% (inactive)
O=C(O)c1ccc2cc3ccccc3cc2c1	growth inhibition	-10% (inactive)
N=Nc1c(OC(=O)Nc2cccc(Cl)c2)[nH]c2ccccc12	growth inhibition	28% (inactive)
COC(=O)/C(Br)=C(\Br)c1ccccc1	growth inhibition	14% (inactive)
N#CI1OC(C(F)(F)F)(C(F)(F)F)c2ccccc21	growth inhibition	72% (active)
Fc1ccc(NC(=S)SCc2ccc(Cl)cc2)c(F)c1	growth inhibition	13% (inactive)
CCCCCCN(CCCCCC)CCCC(O)c1cccc2ccccc12 (configuration not stated)	growth inhibition	0% (inactive)
N#C/C(=C\C(Cl)=C/c1ccccc1)C(N)=S	growth inhibition	91% (active)
Nc1nc(Cl)cc(NCC2(CO)CC(CCCc3ccccc3)C2)n1 (configuration not stated)	growth inhibition	6% (inactive)
COc1cc2c(oc(=O)c3cc(C)cc(OC)c32)c2c(C3OC(C)C(O)C(C)(O)C3O)ccc(O)c12 (configuration not stated)	growth inhibition	79% (active)
Oc1ccc(C(c2ccccc2)(c2ccccc2)c2ccccc2)cc1O	growth inhibition	-4% (inactive)
O=S(=O)(CCCl)Cc1ccccc1	growth inhibition	-61% (inactive)
C[C@@]12C[C@@H](Br)[C@H](Br)C[C@]1(C)O2	growth inhibition	0% (inactive)
COc1cccc2c1C(=O)c1c(O)c3c(c(O)c1C2=O)CC(O)(C(=O)CO)CC3OC1CC(N)C(O)C(C)O1.[Cl][Pt+2][Cl].[NH2-].[NH2-] (configuration not stated)	growth inhibition	11% (inactive)
[N-]=[N+]=Nc1ccc(SN2C(=O)c3ccccc3C2=O)cc1	growth inhibition	6% (inactive)
CC1(C)OC2OC(/C=C/[N+](=O)[O-])C3OC(C)(C)OC3C2O1 (configuration not stated)	growth inhibition	-17% (inactive)
CC1(C)CC(=O)C(C=NC(=S)c2ccccc2)=C(O)C1	growth inhibition	6% (inactive)
Cc1ccc(NNC2=NC(=S)NC(=O)C2)cc1	growth inhibition	18% (inactive)
O=C(Nc1ccc(Cl)cc1)NS(=O)(=O)c1ccc2c(c1)CCC2	growth inhibition	-30% (inactive)
Oc1ccccc1N=CC1CCCCC1	growth inhibition	-33% (inactive)
CCN(CC)CCNc1ccc(C)c2sc3c(OC)cccc3c(=O)c12	growth inhibition	-3% (inactive)
CCN(CC)c1ccc(NC(C(=O)c2ccccc2)c2ccc3c(c2)OCO3)cc1 (configuration not stated)	growth inhibition	-23% (inactive)
O=C(/C(O)=C(\O)C(=O)N(C1CCCCC1)C1CCCCC1)N(C1CCCCC1)C1CCCCC1	growth inhibition	20% (inactive)
CN(C)C(=S)SSSSC(=S)N(C)C	growth inhibition	98% (active)
CC1=NN(c2nc(N)nc(NS(=O)(=O)c3cc(C)c(Cl)cc3S)n2)C(C)(C)C1	growth inhibition	-2% (inactive)
CCOCCC(=O)N1c2ccccc2CC1c1c[nH]c2ccccc12 (configuration not stated)	growth inhibition	-8% (inactive)
O=c1oc2c/c(=C\c3ccccc3)c(=O)c3cccc1c3-2	growth inhibition	12% (inactive)
Oc1cccc2cc(Br)cnc12	growth inhibition	-10% (inactive)
O=[N+]([O-])c1ccc(O)c(/C=N\NC(=S)Nc2ccc3cn[nH]c3c2)c1	growth inhibition	11% (inactive)
CCC=Nc1c(O)cc(-c2ccccc2)n(C)c1=O	growth inhibition	40% (inactive)
CC(C)NC(=O)OCc1c2c(n(C)c1COC(=O)NC(C)C)-c1ccccc1CC2	growth inhibition	13% (inactive)
CCCCCCCCCCCCCCCCNC(C)c1ccccc1 (configuration not stated)	growth inhibition	6% (inactive)
Cc1cc(N/N=C/c2ccc([N+](=O)[O-])o2)c2cc3c(cc2n1)OCO3	growth inhibition	33% (inactive)
CCSC(=S)NC(=O)c1ccccc1	growth inhibition	-2% (inactive)
CCCC(=O)Oc1ccc(-c2ccccc2)cc1Br	growth inhibition	4% (inactive)
COC(=O)C(=O)/C=C(/O)c1ccc(OC)cc1	growth inhibition	-7% (inactive)
CN(C)C(=S)/N=c1\ss/c(=N\C(=S)N(C)C)n1-c1cccc(Cl)c1	growth inhibition	4% (inactive)
CC(C)C1=C2CCC3(C)C(CCC4C5C6OCC5(CCC6(C)C)CCC43C)C2(C)CC1 (configuration not stated)	growth inhibition	19% (inactive)
CCCC(=O)c1ccc(OC)cc1	growth inhibition	0% (inactive)
[N-]=[N+]=NC1=C(C(=O)c2ccccc2)C(=O)c2cccc3cccc1c23	growth inhibition	18% (inactive)

----------
Test: NCI Yeast Anticancer Drug Screen. Data for the mec2-1 strain (AID 157)
Details: S. cerevisiae mec2-1 strain, at 50.0 µM (retest, dose inferred, filed as 5.0), active compounds read high
This is part of a sample that, as a whole, favours compounds with a hit. Of some 79,000 tested, about 15% had one in any assay.
reported-property: growth inhibition (%)

compound	units	value
CC(=O)n1c(=S)n(C(C)=O)c2ccccc21	%	89
CSc1nc2nn(Cc3ccccc3)cc2c(=O)[nH]1	%	19
Cc1ccc(NCCNCCO)c2c(=O)c3ccccc3sc12	%	100
O=S(NCc1ccccc1)c1ccccc1 (configuration not stated)	%	8
Cc1ccc(C2COc3cc(O)c(O)cc3C2)cc1 (configuration not stated)	%	99
C=C(Cl)C(=NC(C)(C)C)Nc1ccccc1Cl	%	35
Cc1ccc2c(c1)C1(SC(C)C(=O)N1c1ccc(F)cc1)C(=O)N2 (configuration not stated)	%	99
CCN(CC)CCCC(C)Nc1cc(O)c2c(c1O)C(=O)c1ccccc1C2=O (configuration not stated)	%	99
CN(C)CC(O)c1cc(-c2ccc(Cl)c(Cl)c2)nc2c(Cl)cc(Cl)cc12 (configuration not stated)	%	99
O=[N+]([O-])c1ccc(S(=O)/N=C/c2ccccc2)c([N+](=O)[O-])c1 (configuration not stated)	%	98
O=C(O)c1cc(Br)ccc1OCc1ccc(Cl)cc1	%	19
O=C(CC1C=Cc2ccccc2N1C(=O)c1ccccc1)c1ccccc1 (configuration not stated)	%	76
OC1(c2ccccc2)CCC2CCCCC2C1 (configuration not stated)	%	52
COC1CC2CCC(C)[C@](O)(O2)C(=O)C(=O)N2CCCCC2C(=O)OC(C(C)CC2CCC(O)C(OC)C2)CC(=O)C(C)C=C(C)C(OC(=O)CCCN2CCCC2)C(OC)C(=O)C(C)CC(C)/C=C/C=C/C=C\1C (some centres not stated)	%	98
NC(=S)c1cccc(OCCCOc2ccccc2)c1	%	14
C/C(=N\Oc1ncc([N+](=O)[O-])c(O/N=C(\C)c2ccccc2)n1)c1ccccc1	%	-11
O=C(O)CC(C(=O)O)C(c1cccc2ccccc12)c1cccc2ccc3ccccc3c12 (configuration not stated)	%	99
COC(=O)C(=O)CC(=O)c1cccc(Cl)c1	%	100
Oc1ccc2ccccc2c1CNc1ccc2ccccc2c1	%	15
O=c1cccccc1O.O=c1cccccc1O.O=c1cccccc1O.[Ru]	%	90
Cc1cc(NCCCCCCCCCC[n+]2c(C)cc(N)c3ccccc32)c2ccccc2n1	%	99
O=C(/C(O)=C(\O)C(=O)N(C1CCCCC1)C1CCCCC1)N(C1CCCCC1)C1CCCCC1	%	89

Source listed as PubChem BioAssay (NCI).
